- study.system: Amaranthus mutant PPO (AMARE) (Amaranthus tuberculatus, UniProt Q0NZW9, R128A)
- protocol.description: biochemical
parameter.measured: pIC50
Notebook: values listed as pIC50 are -log10 of the concentration (mol/L).

Q: Param item = CC(C)N(C)S(=O)(=O)NC(=O)c1cc(-n2c(=O)cc(C(F)(F)F)n(C)c2=O)c(F)cc1Cl ; retrieve measured pIC50.
Ans: 6.89
